target_or_system: LPA/S1P GPCR of interest (Homo sapiens)
Sequence (Q92633 whole entry): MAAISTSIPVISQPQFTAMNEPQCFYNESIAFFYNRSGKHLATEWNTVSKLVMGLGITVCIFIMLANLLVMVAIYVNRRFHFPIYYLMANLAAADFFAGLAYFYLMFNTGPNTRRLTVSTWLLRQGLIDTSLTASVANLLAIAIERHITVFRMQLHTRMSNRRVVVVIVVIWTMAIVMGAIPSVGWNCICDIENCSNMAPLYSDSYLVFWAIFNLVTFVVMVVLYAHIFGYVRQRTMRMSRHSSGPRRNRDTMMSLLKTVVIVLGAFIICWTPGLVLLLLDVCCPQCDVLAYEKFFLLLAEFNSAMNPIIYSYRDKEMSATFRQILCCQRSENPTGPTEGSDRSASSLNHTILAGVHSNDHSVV
experiment_description: Beta-Arrestin based assay (PathHunter)
pEC50: −log10 of the molar value.
# Lookup of reported pEC50 keyed by entry

Reference set, count: 2
| entry_smiles | pEC50 |
| --- | --- |
| Cc1nsc(-c2cc3sc(-c4ccc(CC(=O)O)c(C(F)(F)F)c4)cc3s2)c1NC(=O)O[C@H](C)c1ccccc1 | < 6.30 |
| Cc1nsc(-c2ccc(-c3ccc(OC(C)(C)C(=O)O)c(F)c3)cc2)c1NC(=O)O[C@H](C)c1ccccc1 | 6.30 to 7.30 |

Problem: Tell us which pEC50 value is on record for Cc1cc(-c2cc3sc(-c4nnn(C)c4NC(=O)O[C@H](C)c4ccccc4)cc3s2)c(F)cc1CC(=O)O
Result: < 6.30

Problem: Tell us which pEC50 value is on record for Cc1nsc(-c2cc(F)c(-c3nc4sc(C5(C(=O)O)CC5)cc4s3)cc2F)c1NC(=O)O[C@H](C)c1ccccc1
Result: > 7.30

Problem: Tell us which pEC50 value is on record for Cc1noc(-c2ccc(-c3ccc(Oc4scnc4C(=O)O)cc3)cc2)c1NC(=O)O[C@H](C)c1ccccc1
Result: > 7.30

Problem: Tell us which pEC50 value is on record for Cc1nsc(-c2cc3sc(-c4ccc(-c5nnc(C6(C(=O)O)CC6)o5)cc4)cc3s2)c1NC(=O)O[C@H](C)c1ccccc1
Result: < 6.30

Problem: Tell us which pEC50 value is on record for C[C@@H](OC(=O)Nc1c(-c2ccc(-c3ccc(C4(C(=O)O)CCOCC4)cc3)cc2)cnn1C)c1ccccc1
Result: 6.30 to 7.30

Problem: Tell us which pEC50 value is on record for Cc1nsc(-c2cc3sc(-c4ccc(C5(C(=O)O)CC5)c(S(C)(=O)=O)c4)cc3s2)c1NC(=O)O[C@H](C)c1ccccc1
Result: < 6.30

Problem: Tell us which pEC50 value is on record for Cc1noc(-c2ccc(-c3ccc(Oc4cccnc4C(=O)O)cc3)cc2)c1NC(=O)O[C@H](C)c1ccccc1
Result: > 7.30

Problem: Tell us which pEC50 value is on record for C[C@@H](OC(=O)Nc1c(-c2cc3sc(-c4ccc(C5(C(=O)O)CC5)c(F)c4)cc3s2)cnn1C)c1ccccc1
Result: > 7.30

###

target_or_system: LPA1 (Homo sapiens)
Sequence (Q92633 whole entry): as above
experiment_description: LPA1 Migration Assay (Oris)
condition_parameters: read-out: Cell Migration EC50
Description: LPA1 Migration Assay Migration of primary fibroblasts (including lung, dermal), HFL-1, 3T3 and CHO cells expressing LPA1R were monitored using the Oris™ assay (Platypus Technologies, Madison, Wis.). These cells were dye (Cell Tracker Green™) loaded and serum starved for 12-24 hrs. In response to chemoattractants such as LPA and serum, the cells migrated inward in to the exclusion (detection) zone. After fixing, fluorescent cells in the detection zone were counted using a high content reader. […]
pEC50: −log10 of the molar value.
readout_kind: pEC50

| molecule | val |
| --- | --- |
| Cc1noc(-c2cc3cc4sc(CC(=O)O)cc4cc3s2)c1NC(=O)O[C@H](C)c1ccccc1 | < 6.30 |
| C[C@@H](OC(=O)Nc1c(-c2ccc(-c3ccc(C4(C(=O)OC5OC(C(=O)O)C(O)C(O)C5O)CC4)cc3)cc2)cnn1C)c1ccccc1 (stereo partly drawn) | 6.30 to 7.30 |

Problem: Tell us which pEC50 value is on record for Cc1noc(-c2ccc(-c3ccc4c(c3)CC(C)(C(=O)O)O4)cc2)c1NC(=O)O[C@H](C)c1ccccc1 (stereo partly drawn)
Result: 6.30 to 7.30

###

target_or_system: LPA/S1P GPCR of interest (Homo sapiens)
Construct: host or cells: CHO
experiment_description: Beta-Arrestin based assay (PathHunter)
Type: cell-based
# Lookup of reported EC50 keyed by entry

Reference set, count: 3
| entry_smiles | EC50 |
| --- | --- |
| C[C@@H](OC(=O)Nc1c(-c2cc3sc(-c4ccc(C5(C(=O)O)CC5)cc4)cc3s2)nnn1C)c1ccccc1 | < 50 nM |
| Cc1noc(-c2ccc(C#Cc3ccccc3C(=O)O)cc2)c1NC(=O)O[C@H](C)c1ccccc1 | > 500 nM |
| Cc1cc(-c2cc3sc(-c4nnn(C)c4NC(=O)O[C@H](C)c4ccccc4)cc3s2)c(F)cc1C1(C(=O)O)CC1 | 50 to 500 nM |

Problem: Tell us which EC50 value is on record for Cc1nsc(-c2cc3sc(-c4cc(F)c(C5(C(=O)O)CC5)c(F)c4)cc3s2)c1NC(=O)O[C@H](C)c1ccccc1
Result: < 50 nM

###

target_or_system: LPA1 (Homo sapiens)
experiment_description: LPA1 Migration Assay (Oris)
condition_parameters: read-out: Cell Migration EC50
pEC50: −log10 of the molar value.
readout_kind: pEC50

Reference set, count: 5
| compound | pEC50 |
| --- | --- |
| Cc1noc(-c2ccc(-c3ccc(S(=O)(=O)NC(=O)C4CC4)cc3)cc2)c1NC(=O)O[C@H](C)c1ccccc1 [IT138] | 6.30 to 7.30 |
| C[C@@H](OC(=O)Nc1c(-c2cc3sc(-c4cc(F)c(C5(C(=O)O)CC5)c(F)c4)cc3s2)nnn1C)c1ccccc1 [IT262] | 6.30 to 7.30 |
| Cc1c(C2(C(=O)O)CC2)sc2cc(C#Cc3cnn(C)c3NC(=O)O[C@H](C)c3ccccc3)sc12 [IT107] | 6.30 to 7.30 |
| C[C@@H](OC(=O)Nc1c(-c2cc(Cl)c(-c3cc4sc(C5(C(=O)O)CC5)cc4s3)cc2F)cnn1C)c1ccccc1 [IT282] | > 7.30 |
| Cc1noc(-c2ccc(-c3ccc4c(c3)CCCC4C(=O)O)cc2)c1NC(=O)O[C@H](C)c1ccccc1 (mixture of isomers) [IT038] | < 6.30 |

Problem: Tell us which pEC50 value is on record for Cc1noc(-c2ccc(-c3ccc(Oc4ncn(C)c4C(=O)O)cc3)cc2)c1NC(=O)O[C@H](C)c1ccccc1 [IT486]
Result: < 6.30

Problem: Tell us which pEC50 value is on record for C[C@@H](OC(=O)Nc1c(-c2ccc(-c3ccc(Oc4cc(F)ccc4C(=O)O)cc3)cc2)cnn1C)c1ccccc1 [IT469]
Result: 6.30 to 7.30

Problem: Tell us which pEC50 value is on record for C[C@@H](OC(=O)Nc1c(-c2ccc(-c3cc(F)c(Oc4ncccc4C(=O)O)c(F)c3)cc2)nnn1C)c1ccccc1 [IT306]
Result: > 7.30

Problem: Tell us which pEC50 value is on record for C[C@@H](OC(=O)Nc1c(-c2cc3sc(-c4ccc(C5(C(=O)O)CC5)c(F)c4F)cc3s2)nnn1C)c1ccccc1 [IT365]
Result: 6.30 to 7.30

Problem: Tell us which pEC50 value is on record for Cc1noc(-c2ccc(-c3ccc(S(N)(=O)=O)cc3)cc2)c1NC(=O)O[C@H](C)c1ccccc1 [IT129]
Result: < 6.30

Problem: Tell us which pEC50 value is on record for Cc1nsc(-c2ccc(-c3ccc(CC(=O)O)s3)cc2)c1NC(=O)O[C@H](C)c1ccccc1 [IT141]
Result: < 6.30

Problem: Tell us which pEC50 value is on record for C[C@@H](OC(=O)Nc1c(-c2cc3sc(-c4ccc(C5(C(=O)O)CC5)cc4)cc3s2)cnn1C)c1ccccc1 [IT119]
Result: 6.30 to 7.30

Problem: Tell us which pEC50 value is on record for C[C@@H](OC(=O)Nc1c(C#Cc2ccc3cc(C4(C(=O)O)CC4)ccc3c2)sc2ncccc12)c1ccccc1 [IT035]
Result: 6.30 to 7.30

Problem: Tell us which pEC50 value is on record for Cc1nnn(-c2ccc(-c3ccc(Oc4cccc(F)c4C(=O)O)cc3)cc2)c1NC(=O)O[C@H](C)c1ccccc1 [IT457]
Result: < 6.30

Problem: Tell us which pEC50 value is on record for Cn1ncc(C#Cc2cc3sc(C4(C(=O)O)CC4)cc3s2)c1NC(=O)O[C@@H](c1ccccc1)C(F)(F)F [IT114]
Result: > 7.30

Problem: Tell us which pEC50 value is on record for Cc1noc(-c2ccc(-c3ccc(C4(C(=O)O)CC4(F)F)cc3)cc2)c1NC(=O)O[C@H](C)c1ccccc1 (some centres unmarked) [IT172]
Result: > 7.30

Problem: Tell us which pEC50 value is on record for Cc1noc(-c2ccc(-c3ccc(Oc4ccccc4C(=O)O)cn3)cc2)c1NC(=O)O[C@H](C)c1ccccc1 [IT344]
Result: 6.30 to 7.30

Problem: Tell us which pEC50 value is on record for C[C@@H](OC(=O)Nc1c(-c2cc(F)c(-c3ccc(C4(C(=O)O)CCOCC4)cc3)cc2F)cnn1C)c1ccccc1 [IT044]
Result: 6.30 to 7.30

Problem: Tell us which pEC50 value is on record for Cc1onc(-c2cc(F)c(-c3cc4sc(C5(C(=O)O)CC5)cc4s3)cc2F)c1NC(=O)O[C@H](C)c1ccccc1 [IT255]
Result: 6.30 to 7.30

Problem: Tell us which pEC50 value is on record for C[C@@H](OC(=O)Nc1c(-c2cc3sc(-c4ccc(CC(=O)O)cc4Cl)cc3s2)nnn1C)c1ccccc1 [IT168]
Result: < 6.30

Problem: Tell us which pEC50 value is on record for C[C@@H](OC(=O)Nc1c(-c2ccc(-c3cc(F)c(Oc4ccncc4C(=O)O)c(F)c3)cc2)cnn1C)c1ccccc1 [IT438]
Result: 6.30 to 7.30

Problem: Tell us which pEC50 value is on record for Cc1nsc(-c2cc3sc(-c4ccc(CC(=O)O)nc4)cc3s2)c1NC(=O)O[C@H](C)c1ccccc1 [IT185]
Result: < 6.30

Problem: Tell us which pEC50 value is on record for Cc1noc(-c2cc(F)c(-c3cc(F)c(Oc4ncccc4C(=O)O)c(F)c3)cc2F)c1NC(=O)O[C@H](C)c1ccccc1 [IT474]
Result: > 7.30

Problem: Tell us which pEC50 value is on record for Cc1nnn(-c2ccc(-c3cc(F)c(Oc4ccncc4C(=O)O)c(F)c3)cc2)c1NC(=O)O[C@H](C)c1ccccc1 [IT440]
Result: < 6.30

Problem: Tell us which pEC50 value is on record for C[C@@H](OC(=O)Nc1c(-c2ccc(-c3cc(F)c(Oc4ccccc4C(=O)O)c(F)c3)cc2)cnn1C)c1ccccc1 [IT425]
Result: > 7.30

Problem: Tell us which pEC50 value is on record for Cc1nnn(-c2cc(F)c(-c3cc4sc(C5(C(=O)O)CC5)cc4s3)cc2F)c1NC(=O)O[C@H](C)c1ccccc1 [IT067]
Result: < 6.30

Problem: Tell us which pEC50 value is on record for C[C@@H](OC(=O)Nc1c(-c2cc3sc(-c4cnc(C5(C(=O)O)CC5)s4)cc3s2)nnn1C)c1ccccc1 [IT189]
Result: < 6.30

Problem: Tell us which pEC50 value is on record for C[C@@H](OC(=O)Nc1c(C#Cc2cc(F)c(OC3(C(=O)O)CC3)c(F)c2)cnn1C)c1ccccc1 [IT311]
Result: 6.30 to 7.30

Problem: Tell us which pEC50 value is on record for C[C@@H](OC(=O)Nc1c(-c2cc(F)c(-c3ccc(C4(C(=O)O)CC4)cc3)cc2F)oc2ccccc12)c1ccccc1 [IT075]
Result: 6.30 to 7.30
